Experimental Protocol: PAMPA (parallel artificial membrane permeability assay)
Assay type: in vitro ADME
Measurement Setup: PAMPA, pH 6.5
Positions of bridges follow the written chain, without caps; N, C: chain ends. Non-standard residues stand in square brackets, D forms with d. Residues, ends and D or L forms follow the SMILES beside them. *: point of attachment. NMeF = CN[C@@H](Cc1ccccc1)C(=O)O; NMeI = CC[C@H](C)[C@H](NC)C(=O)O; NMeL = CN[C@@H](CC(C)C)C(=O)O; NMeV = CN[C@H](C(=O)O)C(C)C; NMeA = CN[C@@H](C)C(=O)O; Piperidide = C1CCN(*)CC1; Sar = CNCC(=O)O; tBu = CC(C)(C)*
Below, each entry is listed alongside its reported Papp at 18 hours, 50 µM.
Assay Readout: Papp at 18 hours, 50 µM (×10⁻⁶ cm/s)

compound="CC[C@H](C)[C@H]1C(=O)N(C)[C@@H](CC(C)C)C(=O)N[C@H](C(=O)N2CCCCC2)CC(=O)N[C@H](C)C(=O)N(C)[C@@H](CC(C)C)C(=O)N[C@@H](CC(C)C)C(=O)N(C)[C@@H](Cc2ccccc2)C(=O)N[C@@H](COC(C)(C)C)C(=O)N(C)[C@@H](Cc2ccccc2)C(=O)N[C@@H]([C@@H](C)O)C(=O)N(C)[C@@H](C)C(=O)N1C [DP-96] ([dA][NMeL]L[NMeF]S(tBu)[NMeF]T[NMeA][NMeI][NMeL]D-Piperidide; lactam N-11)" assay_readout="Papp at 18 hours, 50 µM" observed_measurement=13
compound="CC(C)C[C@@H]1NC(=O)[C@H](Cc2ccccc2)N(C)C(=O)[C@@H](C(C)C)NC(=O)C[C@@H](C(=O)N2CCCCC2)NC(=O)[C@H](C(C)C)N(C)C(=O)[C@H](Cc2ccccc2)N(C)C(=O)[C@H](COC(C)(C)C)NC(=O)[C@H](CC(C)C)N(C)C(=O)CN(C)C(=O)[C@H]([C@@H](C)O)NC(=O)[C@H](CC(C)C)N(C)C1=O [DP-149] ([dV][NMeF]L[NMeL]T[Sar][NMeL]S(tBu)[NMeF][NMeV]D-Piperidide; lactam N-11)" assay_readout="Papp at 18 hours, 50 µM" observed_measurement=17
